- Protocol Text: Pharmacokinetics and oral bioavailability in the rat (IV and PO dosing, plasma LC-MS/MS)
- Assay type: in vivo, Sprague-Dawley rats
- Assay Context: Sprague-Dawley, oral versus intravenous dosing
Measured Parameter: bioavailability (%)
Answers are plain numbers, in %.

Item `C#CCNc1nc(NCCC)nc(N(C)OC)n1.Cl` : provide bioavailability
36

---

Measured Parameter: melting point

Worked examples, 6 compounds total:
Molecular String: C#CCNc1nc(NCCC)nc(N(C)OC)n1.O=C(O)CC(=O)O
Result: 113 to 115 °C
--
Molecular String: C#CCNc1nc(NCCC)nc(N(C)OC)n1.O=C(O)/C=C/C(=O)O
Result: 153 to 155 °C
--
Molecular String: C#CCNc1nc(N(C)OC)c2cc[nH]c2n1.Cl
Result: 182 to 184 °C
--
Molecular String: C#CCNc1nc(N)nc(N(C)OC)n1
Result: 172 to 174 °C
--
Molecular String: C#CCNc1nc(NCCC)nc(N(C)OC)n1.O=C(O)/C=C\C(=O)O
Result: 123 to 125 °C
--
Molecular String: C#CCNc1nc(NC2CCC2)nc(N(C)OC)n1.Cl
Result: 105 to 107 °C

// each compound listed below needs its melting point
1. C#CCON(C)c1nc(NCCC)nc(NCCC)n1.Cl
2. C#CCNc1nc(NCCC)nc(N(C)OCC#C)n1.Cl

1: 105 to 107 °C; 2: 84 to 86 °C

For every record below, what is its melting point?
1. C#CCNc1nc(NCCC)nc(N(C)OC)n1
2. C#CCN(OC)c1nc(NCCC)nc(NCCC)n1.Cl

1: 79 to 81 °C; 2: 110 to 113 °C
